Each recorded value in this set is attributed to patent US9567341B2.

target: human NR1/NR2B (Homo sapiens (Human)); test: NR2B antagonist activity (Fluo-4 calcium influx assay); assay type: cell-based; conditions: as printed in the hERG table; read-out: hNR2B IC50
Sequence (Q13224 27-1484, other chains not shown): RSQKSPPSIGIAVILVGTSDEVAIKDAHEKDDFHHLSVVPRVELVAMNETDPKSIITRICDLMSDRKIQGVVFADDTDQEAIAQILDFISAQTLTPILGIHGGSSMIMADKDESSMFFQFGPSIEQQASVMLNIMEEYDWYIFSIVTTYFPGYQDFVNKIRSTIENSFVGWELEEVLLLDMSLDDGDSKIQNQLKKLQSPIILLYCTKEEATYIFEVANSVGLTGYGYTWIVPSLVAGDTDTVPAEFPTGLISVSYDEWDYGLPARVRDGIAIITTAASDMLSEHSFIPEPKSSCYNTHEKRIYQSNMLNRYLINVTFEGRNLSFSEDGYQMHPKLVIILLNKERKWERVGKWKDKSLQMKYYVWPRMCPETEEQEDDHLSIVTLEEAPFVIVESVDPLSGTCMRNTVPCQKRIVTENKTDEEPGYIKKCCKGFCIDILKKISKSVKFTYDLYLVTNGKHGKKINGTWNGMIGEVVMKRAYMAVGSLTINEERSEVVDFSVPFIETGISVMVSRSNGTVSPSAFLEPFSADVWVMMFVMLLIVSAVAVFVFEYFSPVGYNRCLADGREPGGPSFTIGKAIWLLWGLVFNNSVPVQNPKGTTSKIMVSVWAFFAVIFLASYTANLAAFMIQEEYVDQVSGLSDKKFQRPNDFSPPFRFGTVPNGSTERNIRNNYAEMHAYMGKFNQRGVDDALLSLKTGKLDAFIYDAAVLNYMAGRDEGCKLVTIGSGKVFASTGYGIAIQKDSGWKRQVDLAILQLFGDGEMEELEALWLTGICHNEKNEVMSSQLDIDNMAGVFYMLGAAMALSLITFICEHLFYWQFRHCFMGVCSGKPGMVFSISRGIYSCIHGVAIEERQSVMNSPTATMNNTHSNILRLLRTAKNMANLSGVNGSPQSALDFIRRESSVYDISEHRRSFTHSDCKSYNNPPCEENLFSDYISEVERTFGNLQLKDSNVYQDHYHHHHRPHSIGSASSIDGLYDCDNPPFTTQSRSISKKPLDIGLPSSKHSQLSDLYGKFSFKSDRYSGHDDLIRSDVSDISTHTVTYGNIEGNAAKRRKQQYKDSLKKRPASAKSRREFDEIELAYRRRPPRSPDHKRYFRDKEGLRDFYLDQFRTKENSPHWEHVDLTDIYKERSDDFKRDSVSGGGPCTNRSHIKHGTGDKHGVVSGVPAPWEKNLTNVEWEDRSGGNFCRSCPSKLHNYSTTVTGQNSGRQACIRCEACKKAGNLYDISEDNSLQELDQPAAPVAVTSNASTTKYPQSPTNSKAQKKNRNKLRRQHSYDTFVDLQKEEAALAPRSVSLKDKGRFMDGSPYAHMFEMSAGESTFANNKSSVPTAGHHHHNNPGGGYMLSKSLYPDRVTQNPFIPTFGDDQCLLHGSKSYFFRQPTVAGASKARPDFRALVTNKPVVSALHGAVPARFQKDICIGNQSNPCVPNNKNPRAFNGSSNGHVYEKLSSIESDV
OBSERVATION TYPE: pIC50
Keep it numeric: pIC50 is minus log10 of the concentration in mol/L.

query: Returns the measured pIC50 for the input compound. Input: FC(F)(F)c1ccc(C(F)(F)CN2CCC(Nc3ncnc4[nH]ccc34)CC2)nc1
result: 7.52

----------
molecular target: CYP2D6 (Homo sapiens (Human)); test: CYP P450 enzyme inhibition in pooled human liver microsome; conditions: read-out: CYP2D6 IC50, dextromethorphan 5 μM
Sequence (P10635 whole entry): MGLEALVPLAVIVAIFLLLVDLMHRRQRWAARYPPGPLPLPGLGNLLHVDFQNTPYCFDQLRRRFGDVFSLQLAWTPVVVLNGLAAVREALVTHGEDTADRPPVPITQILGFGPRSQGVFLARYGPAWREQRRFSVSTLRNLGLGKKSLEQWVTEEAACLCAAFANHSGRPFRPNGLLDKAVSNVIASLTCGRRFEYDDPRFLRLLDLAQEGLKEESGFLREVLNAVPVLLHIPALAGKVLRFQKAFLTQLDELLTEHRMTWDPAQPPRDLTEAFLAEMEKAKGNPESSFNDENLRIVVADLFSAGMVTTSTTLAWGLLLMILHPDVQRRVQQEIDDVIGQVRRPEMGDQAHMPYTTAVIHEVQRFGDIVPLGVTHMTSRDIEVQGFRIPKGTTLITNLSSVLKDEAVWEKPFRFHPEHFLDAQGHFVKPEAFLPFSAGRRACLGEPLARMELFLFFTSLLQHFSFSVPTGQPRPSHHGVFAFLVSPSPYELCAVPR
Could you please report measured pIC50 for the items listed next?
Keep it numeric: pIC50 is minus log10 of the concentration in mol/L.

query: Returns the measured pIC50 for the input compound. Input: FC(F)(CN1CCC(Nc2ncnc3[nH]ccc23)CC1)c1ccc(Cl)cn1
result: 4.92

query: Returns the measured pIC50 for the input compound. Input: Fc1ccc(C(F)(F)CN2CCC(Nc3ncnc4[nH]ccc34)CC2)cc1
result: 5.64

query: Returns the measured pIC50 for the input compound. Input: FC(F)(F)c1ccc(C(F)(F)CN2CCC(Nc3ncnc4[nH]ccc34)CC2)cc1
result: 5.17

query: Returns the measured pIC50 for the input compound. Input: FC(F)(F)c1ccc(C(F)(F)CN2CCC(Nc3ncnc4[nH]ccc34)CC2)nc1
result: 4.48

query: Returns the measured pIC50 for the input compound. Input: FC(F)c1ccc(C(F)(F)CN2CCC(Nc3ncnc4[nH]ccc34)CC2)cc1
result: 5.31
